B1: TRIB1 (parent)
chain: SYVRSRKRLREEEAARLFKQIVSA

Variants of: B1
test: protein stability index of a GFP-peptide fusion (GPS, HEK-293T) (PSI 1-6); higher = more stable;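 further: lentivirally expressed fusions sorted by FACS into six bins by GFP to DsRed ratio, PSI derived from sequencing read proportions per bin multiplied by bin number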
condition_description: c terminus: a fixed tail appended
experimental_readout: protein stability index

mutation_string=R10F experimental_readout="protein stability index" recorded_measurement=2.04
mutation_string=R8L experimental_readout="protein stability index" recorded_measurement=2.03
mutation_string=K19T experimental_readout="protein stability index" recorded_measurement=2.04
mutation_string=E12P experimental_readout="protein stability index" recorded_measurement=2.03
mutation_string=L9Y experimental_readout="protein stability index" recorded_measurement=2
mutation_string=R6I experimental_readout="protein stability index" recorded_measurement=2
mutation_string=R8Y experimental_readout="protein stability index" recorded_measurement=1.99
